Each entry below carries its recorded IC50.
assay-target: UniProtKB Q99705
experiment-summary: Displacement of [125I]MCH from human recombinant MCHR1 expressed CHO-K1 cell membrane by SPA-YSI assay
Type: cell membranes
All answers are understood in nM, so give the number only.

[
  {
    "sample-smiles": "CC(=O)Nc1cccc(C2CCN(Cc3ccc(C(=O)c4nc5ccccc5n4-c4ccc(F)cc4)cc3C(F)(F)F)CC2)c1",
    "IC50 [nM]": 3250
  },
  {
    "sample-smiles": "CC(=O)Nc1cccc(C2CCN(Cc3ccc(C(=O)c4nc5ccccc5n4-c4ccc(F)cc4)cc3)CC2)c1",
    "IC50 [nM]": 11
  },
  {
    "sample-smiles": "CC(=O)Nc1cccc(C2CCN(Cc3ccc(C(=O)c4nc5ccccc5n4-c4ccc(F)cc4)nc3)CC2)c1",
    "IC50 [nM]": 11
  }
]

`CC(=O)Nc1cccc(C2CCN(Cc3ccc(C(=O)c4nc5ccccc5n4-c4ccc(C#N)cc4)cc3)CC2)c1` yielded IC50 of 172

`CC(=O)Nc1cccc(C2CCN(Cc3ccc(C(=O)c4nc5ccccc5n4-c4ccc(F)cc4)cc3C#N)CC2)c1` yielded IC50 of 651

###

assay-target: Melanin-concentrating hormone receptor 1 (Homo sapiens, UniProt Q99705)
Sequence (Q99705 whole entry): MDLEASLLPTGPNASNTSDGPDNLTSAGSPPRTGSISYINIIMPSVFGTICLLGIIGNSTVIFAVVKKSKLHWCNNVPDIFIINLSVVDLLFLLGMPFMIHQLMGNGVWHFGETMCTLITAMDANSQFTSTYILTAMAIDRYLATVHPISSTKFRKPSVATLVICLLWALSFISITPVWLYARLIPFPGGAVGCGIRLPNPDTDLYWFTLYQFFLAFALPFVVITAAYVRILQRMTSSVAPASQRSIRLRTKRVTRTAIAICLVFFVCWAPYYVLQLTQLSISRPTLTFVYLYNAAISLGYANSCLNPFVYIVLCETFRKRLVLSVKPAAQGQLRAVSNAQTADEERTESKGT
experiment-summary: Displacement of [125I]MCH from human recombinant MCHR1 expressed CHO-K1 cell membrane by SPA-YSI assay
Format: cell membranes
readout: log10 of IC50 (log10 of the value in nM)
Quick note: numbers are log10 of IC50, with nM as the unit.

Known log10 of IC50 results, listed for orientation:
[
  {
    "compound": "CC(=O)Nc1cccc(C2CCN(Cc3ccc(C(=O)c4nc(C)c(C)n4-c4ccc(F)cc4)cc3)CC2)c1",
    "log10 of IC50": 1.34
  },
  {
    "compound": "CC(=O)Nc1cccc(C2CCN(Cc3ccc(C(=O)c4nc5ccccc5n4-c4ccc(Cl)cc4)cc3)CC2)c1",
    "log10 of IC50": 1.53
  },
  {
    "compound": "CC(=O)Nc1cccc(C2CCN(Cc3ccc(C(=O)c4nc5ccccc5n4-c4ccc(F)cc4)cc3Cl)CC2)c1",
    "log10 of IC50": 2.26
  },
  {
    "compound": "CC(=O)Nc1cccc(C2CCN(C(C)c3ccc(C(=O)c4nc5ccccc5n4-c4ccc(F)cc4)cc3)CC2)c1 (configuration not stated)",
    "log10 of IC50": 2.18
  },
  {
    "compound": "CC(=O)Nc1cccc(C2CCN(Cc3ccc(C(=O)c4nc5c(F)cc(F)cc5n4-c4ccc(F)cc4)cc3)CC2)c1",
    "log10 of IC50": 1.18
  },
  {
    "compound": "CC(=O)Nc1cccc(C2CCN(Cc3ccc(C(=O)c4nc5ccccc5n4-c4ccc(F)cc4)cc3F)CC2)c1",
    "log10 of IC50": 1.66
  },
  {
    "compound": "CC(=O)Nc1cccc(C2CCN(Cc3ccc(Oc4nc5ccccc5n4-c4ccc(F)cc4)cc3)CC2)c1",
    "log10 of IC50": 0.90
  },
  {
    "compound": "CC(=O)Nc1cccc(C2CCN(Cc3ccc(C(=O)c4nc5cnccc5n4-c4ccc(F)cc4)cc3)CC2)c1",
    "log10 of IC50": 1.08
  },
  {
    "compound": "CC(=O)Nc1cccc(C2CCN(Cc3ccc(Cc4nc5ccccc5n4-c4ccc(F)cc4)cc3)CC2)c1",
    "log10 of IC50": -0.05
  },
  {
    "compound": "CC(=O)Nc1cccc(C2CCN(Cc3ccc(C(=O)c4nc5ccccc5n4C)cc3)CC2)c1",
    "log10 of IC50": 2.46
  }
]

`CC(=O)Nc1cccc(C2CCN(Cc3ccc(C(=O)c4nc5cccnc5n4-c4ccc(F)cc4)cc3)CC2)c1` yielded log10 of IC50 of 1.15
